assay: Cytotoxicity on macrophages infected with L. donovani; assay type: cell-based, mouse; conditions: mouse, macrophages infected with L. donovani; read-out: IC50 Cytotox. mac.inf.

Molecule | IC50 at 96 h
NC(=O)c1cnccn1 [Pyrazinamide] | > 244 µM
NC(=O)c1cccnc1 [Nicotinamide] | > 246 µM
O=C(N/N=C/c1ccc([N+](=O)[O-])o1)c1ccc(O)cc1 [Nifuroxazide] | 36.2 µM
NC12CC3CC(CC(C3)C1)C2 | > 198 µM
CN/C(=N/CCSCc1nc[nH]c1C)NC#N | > 119 µM
CN(C)CCCN1c2ccccc2Sc2ccc(Cl)cc21 | 31.4 µM
Nc1nc(N)c2nc(-c3ccccc3)c(N)nc2n1 | > 11.8 µM
COc1ccc2[nH]c([S+]([O-])Cc3ncc(C)c(OC)c3C)nc2c1 (stereo not drawn) | > 86.9 µM
Nc1nc(O)c2ncn(COC(CO)CO)c2n1 | > 118 µM
CCc1nc(N)nc(N)c1-c1ccc(Cl)cc1 | > 12.1 µM
CCC[C@@H]1C[C@@H](C(=O)N[C@@H]([C@H]2O[C@H](SC)[C@H](O)[C@@H](O)[C@H]2O)[C@@H](C)O)N(C)C1 | > 73.8 µM
N=C(N)c1ccc(OCCCCCOc2ccc(C(=N)N)cc2)cc1 | > 29.4 µM

====

system: T. b. rhodesiense strain STIB 900, trypomastigotes; assay: in vitro; conditions: rat, Selectivity index: IC50 Cytotoxicity L6/ IC50 T. b. rhodesiense
Entries annotated with measured selectivity ratio
Experimental endpoint: selectivity ratio

Molecule | Experimental endpoint | Result
O=C1CN(/N=C/c2ccc([N+](=O)[O-])o2)C(=O)N1 [Nitrofurantoine] | selectivity ratio | 180
CN(C)CCC=C1c2ccccc2CCc2ccccc21 [Amitriptyline] | selectivity ratio | 14
CNCCC=C1c2ccccc2CCc2ccccc21 [Nortryptyline] | selectivity ratio | > 20
CC1CS(=O)(=O)CCN1/N=C/c1ccc([N+](=O)[O-])o1 (stereo not shown) [Nifurtimox] | selectivity ratio | 60

====

tested on: P. falciparum strain K1; experiment: in vitro; settings: rat
Recorded measurements of selectivity ratio, one per entry

Compound | Measured target | selectivity ratio
CNCCC=C1c2ccccc2CCc2ccccc21 | P. falciparum strain K1 | 48
CCN(CC)CCCC(C)Nc1ccnc2cc(Cl)ccc12 (stereo not drawn) [Chloroquine (Diphosphate), Chloroquine] | P. falciparum strain K1 | 298
C[C@@H]1[C@H](O)[C@@H](C)/C=C/C=C/C=C/C=C/C=C/C=C/C=C/[C@H](O[C@@H]2O[C@H](C)[C@@H](O)[C@H](N)[C@@H]2O)C[C@@H]2O[C@](O)(C[C@@H](O)C[C@@H](O)[C@H](O)CC[C@@H](O)C[C@@H](O)CC(=O)O[C@H]1C)C[C@H](O)[C@H]2C(=O)O | P. falciparum strain K1 | 13

====

test: Cytotoxicity on macrophages infected with L. donovani; format: cell-based, mouse; conditions: mouse, mouse peritoneal macrophages infected with L. donovani, macrophages infected with L. donovani; read-out: IC50 Cytotox. mac.inf.
Where a name gives a salt, the structure may show the parent alone.

Compound | IC50 at 96 h
Cc1cn([C@H]2C=C[C@@H](CO)O2)c(=O)[nH]c1=O [Stavudine] | > 134 µM
Cn1c([N+](=O)[O-])cnc1N1CCN(S(C)(=O)=O)C1=O [Satranidazole] | > 104 µM
CC(N)C12CC3CC(CC(C3)C1)C2 (stereo not shown) [Rimantadine] | > 167 µM
CN1CCC(=C2c3ccccc3CC(=O)c3sccc32)CC1 [Ketotifen] | > 97 µM
CN(C/C=C/C#CC(C)(C)C)Cc1cccc2ccccc12 [Terbinafine (Hydrochloride), Terbinafine] | > 91.5 µM
CN1CCC(=C2c3ccccc3CCc3sccc32)CC1 [Pizotifen] | > 102 µM
COc1cc(C)c2c(Oc3cccc(C(F)(F)F)c3)c(OC)cc(NC(C)CCCN)c2n1 (stereo not shown) [Tafenoquine] | 6.47 µM
COC(=O)N[C@H](C(=O)N[C@@H](Cc1ccccc1)[C@@H](O)CN(Cc1ccc(-c2ccccn2)cc1)NC(=O)[C@@H](NC(=O)OC)C(C)(C)C)C(C)(C)C [Atazanavir (Sulfate), Atazanavir] | > 37.5 µM
Cc1nc2ccccn2c(=O)c1CCN1CCC(C(=O)c2ccc(F)cc2)CC1 [Pirenperone] | > 76.2 µM
CCC[C@@]1(CCc2ccccc2)CC(O)=C([C@H](CC)c2cccc(NS(=O)(=O)c3ccc(C(F)(F)F)cn3)c2)C(=O)O1 [Tipranavir] | > 50 µM
